Target: 5-HT1A serotonin receptor (Rattus norvegicus, UniProt P19327)
Sequence (P19327 1-422): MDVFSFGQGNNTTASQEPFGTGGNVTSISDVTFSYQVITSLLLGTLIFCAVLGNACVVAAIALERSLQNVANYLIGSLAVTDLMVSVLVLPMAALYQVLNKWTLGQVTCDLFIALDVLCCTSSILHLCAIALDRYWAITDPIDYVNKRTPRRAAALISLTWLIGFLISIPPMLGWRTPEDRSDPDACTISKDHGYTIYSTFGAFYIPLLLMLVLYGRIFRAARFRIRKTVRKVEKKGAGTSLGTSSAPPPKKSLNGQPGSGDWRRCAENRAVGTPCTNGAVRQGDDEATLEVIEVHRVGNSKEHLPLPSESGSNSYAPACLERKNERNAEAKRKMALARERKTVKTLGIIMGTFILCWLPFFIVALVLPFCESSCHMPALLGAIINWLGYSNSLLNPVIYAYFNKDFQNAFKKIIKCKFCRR
outcomeMeasure: IC50 (nM)
Write the number in nM without appending the unit.

Ask: So what's the measured IC50 for this one? COc1ccccc1N1CCN(CC(C(=O)NNC(C)(C)C)c2ccccc2)CC1 (stereo not shown) [Example 26]
Result: 118

----------
Target: 5-HT1A serotonin receptor (Rattus norvegicus, UniProt P19327)
Construct: 44: 1685-1696, 1985; from tissue
Sequence (P19327 1-422): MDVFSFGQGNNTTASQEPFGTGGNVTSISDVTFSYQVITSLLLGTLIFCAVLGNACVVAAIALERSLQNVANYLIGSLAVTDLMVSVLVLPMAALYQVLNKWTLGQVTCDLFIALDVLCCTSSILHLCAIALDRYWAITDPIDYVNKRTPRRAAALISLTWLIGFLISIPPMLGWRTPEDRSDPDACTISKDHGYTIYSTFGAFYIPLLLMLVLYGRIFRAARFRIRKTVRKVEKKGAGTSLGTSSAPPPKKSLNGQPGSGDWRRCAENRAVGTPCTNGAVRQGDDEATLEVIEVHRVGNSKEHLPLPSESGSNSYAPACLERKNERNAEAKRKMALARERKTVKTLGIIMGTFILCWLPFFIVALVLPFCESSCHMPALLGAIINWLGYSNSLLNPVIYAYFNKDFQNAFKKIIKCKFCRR
Assay: 5-HT1A receptor binding, displacement of [^3 H] 8-OH DPAT (Hall et al.)
Conditions: at 0.1 μM; read-out: Affinity for 5HT1A Receptor % Inhibition
outcomeMeasure: inhibition at 0.1 µM (%)
Write the number in % without appending the unit.

Consider the following illustrative entries.
COc1ccccc1N1CCN(CC(C(=O)OC(C)(C)C)c2ccccc2)CC1 (stereo not shown); 86
COc1ccccc1N1CCN(CC(C(=O)NNC(C)(C)C)c2ccccc2)CC1 (stereo not shown); 48
COc1ccccc1N1CCN(CCNC(=O)C2(C)CCCCC2)CC1; 98
COc1ccccc1N1CCN(C[C@@H](C)NC(=O)C2(C)CCCCC2)CC1; 100

Ask: So what's the measured inhibition at 0.1 µM for this one? COc1ccccc1N1CCN(CC(OC(=O)NC(C)(C)C)c2ccccc2)CC1 (stereo not shown)
Result: 73

Ask: # iterate: `COc1ccccc1N1CCN(CCCCNC(=O)NC(C)(C)C)CC1`
Result: 91

Ask: # iterate: `COc1ccccc1N1CCN(CCNC(=O)NC2(C)CCCCC2)CC1`
Result: 85

Ask: # iterate: COc1ccccc1N1CCN(CC(OC(=O)C(C)(C)C)c2ccccc2)CC1 (stereo not shown)
Result: 27

Ask: # iterate: `COc1ccccc1N1CCN(CCCCNC(=O)C(C)(C)C)CC1`
Result: 100

Ask: # iterate: `CC1(C(=O)NCCN2CCN(c3ncccn3)CC2)CCCCC1`
Result: 67

----------
Molecular target: D2 dopamine receptor (Rattus norvegicus)
Construct: from tissue; host or cells: homogenized limbic brain tissue
Sequence (P61169 whole entry): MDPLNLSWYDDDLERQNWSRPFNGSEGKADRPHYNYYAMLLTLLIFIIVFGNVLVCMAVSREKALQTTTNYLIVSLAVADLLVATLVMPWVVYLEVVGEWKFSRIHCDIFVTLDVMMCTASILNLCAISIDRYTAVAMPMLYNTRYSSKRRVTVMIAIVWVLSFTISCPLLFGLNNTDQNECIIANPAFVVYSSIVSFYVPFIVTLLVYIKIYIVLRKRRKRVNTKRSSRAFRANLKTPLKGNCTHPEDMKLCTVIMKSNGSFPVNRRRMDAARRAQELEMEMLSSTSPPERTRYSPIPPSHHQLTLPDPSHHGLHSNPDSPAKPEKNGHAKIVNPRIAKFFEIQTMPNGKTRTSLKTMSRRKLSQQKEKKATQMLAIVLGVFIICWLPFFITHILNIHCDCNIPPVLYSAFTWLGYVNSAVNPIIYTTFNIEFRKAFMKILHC
Assay: D2 dopamine receptor binding, limbic brain tissue incubated with ^3 H-spiroperiodol
Conditions: read-out: Affinity for D2 Receptor IC50
outcomeMeasure: pIC50
When answering, recall that pIC50 equals minus log10 of the concentration in mol/L, and write that number alone.

Ask: So what's the measured pIC50 for this one? COc1ccccc1N1CCN(CC(C(=O)NC(C)(C)C)c2ccccc2)CC1 (stereo not shown)
Result: 5.76

----------
Biological target: 5-HT1A serotonin receptor (Rattus norvegicus, UniProt P19327)
Construct: 44: 1685-1696, 1985; from tissue
Sequence (P19327 1-422): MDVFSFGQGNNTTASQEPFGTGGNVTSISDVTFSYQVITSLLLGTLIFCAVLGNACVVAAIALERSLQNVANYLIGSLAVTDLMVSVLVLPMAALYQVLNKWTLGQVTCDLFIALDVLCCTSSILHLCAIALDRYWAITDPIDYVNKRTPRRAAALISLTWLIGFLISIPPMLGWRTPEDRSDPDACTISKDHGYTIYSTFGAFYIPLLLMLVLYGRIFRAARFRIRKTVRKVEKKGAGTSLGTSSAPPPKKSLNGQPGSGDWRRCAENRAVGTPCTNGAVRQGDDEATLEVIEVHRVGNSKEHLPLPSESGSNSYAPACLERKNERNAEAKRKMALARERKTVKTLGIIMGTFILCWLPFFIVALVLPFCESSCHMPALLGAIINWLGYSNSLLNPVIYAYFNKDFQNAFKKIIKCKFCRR
Experiment: 5-HT1A receptor binding, displacement of [^3 H] 8-OH DPAT (Hall et al.)
Conditions: at 1 μM; read-out: Affinity for 5HT1A Receptor % Inhibition
outcomeMeasure: inhibition at 1 µM (%)
Write the number in % without appending the unit.

Consider the following illustrative entries.
COc1ccccc1N1CCN(CC(OC(=O)NC(C)(C)C)c2ccccc2)CC1 (stereo not shown) [Example 24]; 97
COc1ccccc1N1CCN(CCCOC(=O)C(C)(C)C)CC1 [Example 4]; 98
COc1ccccc1N1CCN(CC(OC(=O)C(C)(C)C)c2ccccc2)CC1 (stereo not shown) [Example 23]; 78
COc1ccccc1N1CCN(CCOC(=O)C(C)(C)C)CC1 [Example 3]; 86
COc1ccccc1N1CCN(CC(C(=O)NNC(C)(C)C)c2ccccc2)CC1 (stereo not shown) [Example 26]; 96

Ask: So what's the measured inhibition at 1 µM for this one? COc1ccccc1N1CCN(CC(C(=O)OC(C)(C)C)c2ccccc2)CC1 (stereo not shown) [Example 12]
Result: 98

Ask: # iterate: CC(C)(C)C(=O)OCCCN1CCN(c2ccccc2Cl)CC1 [Example 5]
Result: 98
